Tested on: thromboxane production in human platelet rich plasma (TxB2)
protocol.details: Thromboxane production in human platelet rich plasma (TxB2 radioimmunoassay, collagen stimulated)
Assay type: cell-based
experimental.context: read-out: ACTIVITY (IC50 × 10^6 M)
pIC50: −log10 of the molar value.
Decide by pIC50: equal to or exceeding 5 means y, less means n.

Prompt: Record COc1ccc(COCC(Cn2ccnc2)OCc2ccsc2)cc1 (stereo not shown) [Example 30] ; criterion: pIC50 no lower than 5. Met?
Completion: n

Prompt: Record COc1ccc(COCC(Cn2ccnc2)OCc2cccc(OC)c2)cc1 (stereo not shown) [Example 15] ; criterion: pIC50 no lower than 5. Met?
Completion: n

Prompt: Record COc1ccc(COCC(Cn2ccnc2)OCc2ccc3c(c2)OCO3)cc1 (stereo not shown) [Example 20] ; criterion: pIC50 no lower than 5. Met?
Completion: y

Prompt: Record COc1ccc(COC(CSCc2ccc(OC)cc2)Cn2ccnc2)cc1 (stereo not shown) [Example 35] ; criterion: pIC50 no lower than 5. Met?
Completion: n

Prompt: Record COc1ccc(COCC(Cn2ccnc2)OCc2ccc(Cl)cc2)cc1 (stereo not shown) [Example 4] ; criterion: pIC50 no lower than 5. Met?
Completion: n
